Here the recorded pKd is given for each entry.
Target: T1, huCD3e-mFc (human, UniProt P07766 23-126)
T1 construct: not shown: mFc, not described
T1 sequence (P07766 23-126): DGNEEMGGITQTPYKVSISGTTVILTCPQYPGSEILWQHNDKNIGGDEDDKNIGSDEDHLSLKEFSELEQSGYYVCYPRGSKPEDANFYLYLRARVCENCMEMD
Assay: Pool 3 screen
The scale used: pKd is minus the common logarithm of the concentration in molar units.

Quickly give me recorded pKd for AC3841 (CD3.337) (scFv, V domains shown, Pool 3 format (remarks)) VH: EVQLVESGGGIVQPGGSLRLSCAASGFTFNTYAMNWVRQAPGKGLEWVGRIRTKTNDYATYYADSVKGRFTISRDDSKNTLYLQMNSLKTEDTAVYYCVRHENFGNSYVSWFAHWGQGTLVTVSS VL: ELVVTQEPSLTVSPGGTVTLTCRSSNGAVTSSNYANWVQQKPGQAPRGLIGGTNKRAPGTPARFSGSLLGGKAALTLSGVQPEDEAVYYCALWYPNLWVFGGGTKLTVL
7.91

Specify measured pKd for AC3846 (CD3.342) (scFv, V domains shown, Pool 3 format (remarks)) VH: EVQLVESGGGIVQPGGSLRLSCAASGFTFNTYAMNWVRQAPGKGLEWVGRIRTKTNDYATYYADSVKGRFTISRDDSKNTLYLQMNSLKTEDTAVYYCVRHENFGNSYVSWFAHWGQGTLVTVSS VL: ELVVTQEPSLTVSPGGTVTLTCRSSNGAVTSSNYANWVQQKPGQAPRGLIGGTNKRAPGTPARFSGSLGGGKAALTLSGVQPEDEAVYYCALWYPNLWVFGGGTKLTVL .
8.00

Supply reported pKd belonging to this binder: AC3805 (CD3.301) (scFv, V domains shown, Pool 3 format (remarks)) VH: EVQLVESGGGIVQPGGSLRLSCAASGFTFSTYAMNWVRQAPGKGLEWVGRIRTKRNDYATYYADSVKGRFTISRDDSKNTAYLQMNSLKTEDTAVYYCVRHENFGNSYVSWFAHWGQGTLVTVSS VL: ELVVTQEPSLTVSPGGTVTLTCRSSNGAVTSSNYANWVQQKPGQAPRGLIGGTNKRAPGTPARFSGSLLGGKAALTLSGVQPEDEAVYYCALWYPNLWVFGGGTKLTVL
8.26

Source of measurements: patent US20260167728A1
